target: human GPR52 (Homo sapiens); test: HTRF assay for direct cAMP measurement; conditions: CHO-K1 cells stably expressing recombinant human GPR52, mean EC50
Sequence (Q9Y2T5 whole entry): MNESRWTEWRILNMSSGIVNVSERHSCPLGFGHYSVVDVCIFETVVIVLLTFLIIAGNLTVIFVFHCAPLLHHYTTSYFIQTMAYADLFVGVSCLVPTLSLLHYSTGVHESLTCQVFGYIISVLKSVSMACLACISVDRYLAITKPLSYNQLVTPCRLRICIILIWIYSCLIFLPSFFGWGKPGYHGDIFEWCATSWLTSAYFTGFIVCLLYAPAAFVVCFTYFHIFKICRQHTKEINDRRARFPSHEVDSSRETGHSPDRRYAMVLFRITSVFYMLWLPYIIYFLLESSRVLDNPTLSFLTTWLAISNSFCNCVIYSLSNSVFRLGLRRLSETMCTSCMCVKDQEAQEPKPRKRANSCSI
reported_metric: EC50 (nM)

CCc1cc(NC(=O)c2nccnc2N2CC(Oc3ccc(F)c(Cl)c3)C2)ncn1 [Example 40] :: 5

P: Cc1cc(NC(=O)c2nccnc2N2CC(Oc3ccc(F)c(Cl)c3)C2)ncn1 [Example 25]
Q: CCc1cc(NC(=O)c2nccnc2N2CC(Oc3cc(F)cc(C(F)F)c3)C2)ncn1 [Example 39]
R: Cc1cc(NC(=O)c2nccnc2N2CC(Oc3cc(F)c(F)c(F)c3)C2)ncn1 [Example 26]
Q. Which order do these items take when sorted by rising EC50? List them. Output spec: a listing of the labels in the requested order.
A. P, R, Q

----------
biological target: human GPR52 (Homo sapiens); assay: HTRF assay for direct cAMP measurement; details: CHO-K1 cells stably expressing recombinant human GPR52, mean EC50
pEC50: −log10 of the molar value.
reported_metric: pEC50

Some molecules with recorded pEC50:
CCc1cc(NC(=O)c2nccnc2N2CC(Oc3ccc(F)c(F)c3)C2)ncn1 [Example 37] :: 8.52
O=C(Nc1cc(C(F)(F)F)ncn1)c1nccnc1N1CC(Oc2ccc(F)c(F)c2)C1 [Example 46] :: 8.15

P: O=C(Nc1ccncn1)c1nccnc1N1CC(Oc2ccc(F)c(Cl)c2)C1 [Example 44]
Q: Cc1cc(NC(=O)c2nccnc2N2CC(Oc3cc(F)cc(C(F)F)c3)C2)cnn1 [Example 11]
Q. Which has the higher pEC50, P or Q ? Returns: label corresponding to the selected item.
A. Q
(Q: 8.22, P: 7.43)

----------
molecular target: human GPR52 (Homo sapiens); test: HTRF assay for direct cAMP measurement; settings: CHO-K1 cells stably expressing recombinant human GPR52, mean EC50
pEC50: −log10 of the molar value.
reported_metric: pEC50

O=C(Nc1ccnnc1)c1nccnc1N1CC(Oc2cc(F)cc(C(F)(F)F)c2)C1 :: 8.05
CCc1cc(NC(=O)c2nccnc2N2CC(Oc3cc(F)cc(F)c3)C2)ncn1 :: 8.00
CCc1cc(NC(=O)c2nccnc2N2CC(Oc3cc(F)cc(Cl)c3)C2)ncn1 :: 8.10

P: O=C(Nc1ccnnc1)c1nccnc1N1CC(Oc2cc(F)cc(F)c2)C1
Q: O=C(Nc1ccncn1)c1nccnc1N1CC(Oc2cc(F)c(F)c(Cl)c2)C1
Q. Kindly compare P with Q and tell me which has the lower pEC50 figure. Returns: label corresponding to the selected item.
A. P
(P: 7.72, Q: 7.92)

----------
target: human GPR52 (Homo sapiens); assay: HTRF assay for direct cAMP measurement; details: CHO-K1 cells stably expressing recombinant human GPR52, mean EC50
pEC50: −log10 of the molar value.
reported_metric: pEC50

Some compounds with recorded pEC50:
CCc1cc(NC(=O)c2nccnc2N2CC(Oc3cc(F)c(F)c(Cl)c3)C2)cnn1 :: 8.22
O=C(Nc1ccnnc1)c1nccnc1N1CC(Oc2cc(F)cc(C(F)F)c2)C1 :: 8.22
CCc1cc(NC(=O)c2nccnc2N2CC(Oc3cc(F)cc(F)c3)C2)cnn1 :: 8.22
CCc1cc(NC(=O)c2nccnc2N2CC(Oc3ccc(F)c(F)c3)C2)cnn1 :: 8.70
CCc1cc(NC(=O)c2nccnc2N2CC(Oc3ccc(F)c(Cl)c3)C2)cnn1 :: 8.40

P: Cc1cc(NC(=O)c2nccnc2N2CC(Oc3cc(F)cc(C(F)(F)F)c3)C2)cnn1
Q: Cc1cc(NC(=O)c2nccnc2N2CC(Oc3cc(F)c(F)c(Cl)c3)C2)ncn1
Q. Kindly compare P with Q and tell me which has the lower pEC50 figure. Returns: label corresponding to the selected item.
A. P
(P: 7.85, Q: 8.10)
